# ASSAY PROTOCOL: Equilibrium solubility in water at room temperature
# Assay type: physicochemical
# COND: water; pH 7.8 printed for the other crystal forms
Where a name gives a salt, the structure may show the parent alone.
QUANTITY: solubility thermodynamic (µg/mL)

{"COMPOUND": "CCc1nc2c(C)cc(C)nc2n1Cc1ccc(-c2ccccc2S(=O)(=O)NC(=O)c2ccccc2)cc1 [Form I, potassium salt]", "READOUT UNIT": "µg/mL", "OBS VALUE": 8000}
